target or system: CSF1R (Homo sapiens (Human))
assay procedure: Inhibition of CSF1R kinase activity (HTRF KinEASE-TK)
run parameters: biochemical, HTRF KinEASE-TK
Reported IC50 is given for each of the following molecules.

{"smiles data": "Cc1ncc(C(=O)Nc2cc(C(=O)Nc3ccc(CC(F)(F)F)cn3)c(Cl)cc2C)s1", "recorded result": "> 1000 nM"}
{"smiles data": "Cc1ncc(C(=O)Nc2cc(C(=O)Nc3ccc(OC4CC4)c(C)n3)c(F)cc2C)s1", "recorded result": "> 1000 nM"}
{"smiles data": "CC(C)Oc1ccc(NC(=O)c2cc(NC(=O)c3cnc(N)s3)c(Cl)cc2F)nc1", "recorded result": "100 to 1000 nM"}

Now consider the entry below.
State the recorded IC50 for this entry: Cc1cc(F)c(C(=O)Nc2ccn(C)n2)cc1NC(=O)c1cnc(N)s1
> 1000 nM

* * *

target or system: CSF1R (Homo sapiens (Human), UniProt P07333)
Sequence (P07333 20-972): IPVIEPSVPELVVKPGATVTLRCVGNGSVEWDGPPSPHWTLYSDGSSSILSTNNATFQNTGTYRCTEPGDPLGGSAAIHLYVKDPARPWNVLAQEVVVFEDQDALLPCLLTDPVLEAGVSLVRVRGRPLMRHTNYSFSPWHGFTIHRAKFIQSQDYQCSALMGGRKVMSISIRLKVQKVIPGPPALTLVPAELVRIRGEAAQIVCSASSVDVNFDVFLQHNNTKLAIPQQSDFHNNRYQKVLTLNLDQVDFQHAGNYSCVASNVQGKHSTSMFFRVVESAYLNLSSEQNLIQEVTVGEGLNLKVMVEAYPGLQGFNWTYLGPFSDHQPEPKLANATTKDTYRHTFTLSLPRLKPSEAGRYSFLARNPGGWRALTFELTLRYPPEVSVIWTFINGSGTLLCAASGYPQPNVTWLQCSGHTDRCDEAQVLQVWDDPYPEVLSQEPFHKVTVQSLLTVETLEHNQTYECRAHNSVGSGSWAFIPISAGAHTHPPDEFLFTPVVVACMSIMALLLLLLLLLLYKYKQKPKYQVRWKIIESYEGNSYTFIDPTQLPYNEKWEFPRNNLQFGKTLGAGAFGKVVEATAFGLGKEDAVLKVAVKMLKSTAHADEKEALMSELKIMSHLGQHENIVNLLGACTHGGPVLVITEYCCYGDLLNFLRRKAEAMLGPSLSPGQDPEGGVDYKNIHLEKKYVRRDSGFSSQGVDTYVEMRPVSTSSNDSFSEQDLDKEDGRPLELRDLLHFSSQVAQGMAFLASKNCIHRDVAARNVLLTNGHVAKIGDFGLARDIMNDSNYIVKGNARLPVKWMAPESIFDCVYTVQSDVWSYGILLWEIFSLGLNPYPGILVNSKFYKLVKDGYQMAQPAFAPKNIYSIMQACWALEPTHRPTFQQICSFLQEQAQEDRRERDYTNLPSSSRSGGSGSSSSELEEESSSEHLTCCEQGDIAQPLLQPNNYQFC
assay procedure: Inhibition of CSF1R kinase activity (HTRF KinEASE-TK)
run parameters: biochemical, HTRF KinEASE-TK
pIC50: −log10 of the molar value.
Reported pIC50 is given for each of the following compounds.

{"compound": "Cc1cc(F)c(C(=O)Nc2ccccc2F)cc1NC(=O)c1cnc(N)s1 [Example 234]", "observable": "pIC50", "recorded result": "< 6.00"}

State the recorded pIC50 for this entry: Cc1ncc(C(=O)Nc2cc(C(=O)Nc3ccc(C(F)F)cn3)c(F)cc2C)s1 [Example 16]
< 6.00

State the recorded pIC50 for this entry: Cc1cc(F)c(C(=O)Nc2cc(C(F)(F)F)ccn2)cc1NC(=O)c1cnc(N)s1 [Example 178]
> 7.00

State the recorded pIC50 for this entry: Cc1ncc(C(=O)Nc2cc(C(=O)NCc3ccc(C(F)(F)F)cc3)c(F)cc2C)s1 [Example 268]
< 6.00

* * *

target or system: CSF1R (Homo sapiens (Human), UniProt P07333)
assay procedure: Inhibition of CSF1R kinase activity (HTRF KinEASE-TK)
run parameters: biochemical, HTRF KinEASE-TK
pIC50: −log10 of the molar value.
observable: pIC50

Use the examples below as a reference point.
{"smiles data": "Cc1ncc(C(=O)Nc2cc(C(=O)Nc3cnc(OC(F)F)cn3)c(F)cc2C)s1", "pIC50": "< 6.00"}
{"smiles data": "Cc1ncc(C(=O)Nc2cc(C(=O)Nc3ccc(OC(C)C)cn3)c(F)cc2Cl)s1", "pIC50": "< 6.00"}
{"smiles data": "Cc1cc(F)c(C(=O)Nc2cc3n(n2)CCOC3)cc1NC(=O)c1cnc(N)s1", "pIC50": "< 6.00"}
{"smiles data": "Cc1cc(F)c(C(=O)NCC2(F)CCC2)cc1NC(=O)c1cnc(NC(=O)N2CCC2)s1", "pIC50": "6.00 to 7.00"}
{"smiles data": "Cc1ncc(C(=O)Nc2cc(C(=O)Nc3cncc(C(F)(F)F)n3)c(F)cc2C)s1", "pIC50": "< 6.00"}
{"smiles data": "Cc1cc(F)c(C(=O)Nc2ccn(-c3ccccc3)n2)cc1NC(=O)c1cnc(N)s1", "pIC50": "< 6.00"}
{"smiles data": "CCc1ccc(NC(=O)c2cc(NC(=O)c3cnc(N)s3)c(C)cc2F)nc1", "pIC50": "6.00 to 7.00"}
{"smiles data": "Cc1cc(F)c(C(=O)Nc2ccc(C3CC3)nn2)cc1NC(=O)c1cnc(N)s1", "pIC50": "6.00 to 7.00"}
{"smiles data": "Cc1ncc(C(=O)Nc2cc(C(=O)NCc3ccccc3F)c(F)cc2C)s1", "pIC50": "< 6.00"}
{"smiles data": "Cc1cc(F)c(C(=O)Nc2nnc(C3CC3)[nH]2)cc1NC(=O)c1cnc(N)s1", "pIC50": "< 6.00"}

State the recorded pIC50 for this entry: Cc1cc(F)c(C(=O)N[C@H]2C[C@@H](C#N)C2)cc1NC(=O)c1cnc(N)s1
< 6.00

State the recorded pIC50 for this entry: Cc1ncc(C(=O)Nc2cc(C(=O)NCc3ccn(C(C)C)n3)c(F)cc2C)s1
< 6.00

State the recorded pIC50 for this entry: Cc1cc(F)c(C(=O)Nc2ccc(OC3CC3)cn2)cc1NC(=O)c1cnc(NC(=O)C(C)(C)O)s1
< 6.00

* * *

target or system: UniProt P07333
assay procedure: Inhibition of CSF1R kinase activity (HTRF KinEASE-TK)
run parameters: biochemical, HTRF KinEASE-TK
observable: IC50

Use the examples below as a reference point.
{"smiles data": "CCOCc1ccc(NC(=O)c2cc(NC(=O)c3cnc(N)s3)c(C)cc2F)nc1", "recorded result": "> 1 µM"}
{"smiles data": "Cc1ncc(C(=O)Nc2cc(C(=O)Nc3cnc(CC4CC4)cn3)c(F)cc2C)s1", "recorded result": "> 1 µM"}
{"smiles data": "COC1(c2ccc(NC(=O)c3cc(NC(=O)c4cnc(N)s4)c(C)cc3F)nc2)CC1", "recorded result": "0.1 to 1 µM"}
{"smiles data": "Cc1cc(F)c(C(=O)N[C@H]2C[C@@H](C(N)=O)C2)cc1NC(=O)c1cnc(N)s1", "recorded result": "> 1 µM"}

State the recorded IC50 for this entry: Cc1ncc(C(=O)Nc2cc(C(=O)Nc3cnc(N4CCC[C@@H]4C)cn3)c(F)cc2C)s1
> 1 µM

State the recorded IC50 for this entry: Cc1cc(F)c(C(=O)Nc2ccc(OC3CCC3)cn2)cc1NC(=O)c1cnc(N)s1
0.1 to 1 µM

State the recorded IC50 for this entry: Cc1cc(F)c(C(=O)Nc2ccc(OC3CC3)cn2)cc1NC(=O)c1cnc(NC(=O)[C@@H]2CCOC2)s1
> 1 µM

State the recorded IC50 for this entry: Cc1cc(F)c(C(=O)Nc2ccc(OCC3CC3)cn2)cc1NC(=O)c1cnc(N)s1
> 1 µM

* * *

target or system: CSF1R (Homo sapiens (Human))
assay procedure: Inhibition of CSF1R kinase activity (HTRF KinEASE-TK)
run parameters: biochemical, HTRF KinEASE-TK
Reported IC50 is given for each of the following compounds.

Use the examples below as a reference point.
{"compound": "Nc1ncc(C(=O)Nc2cc(C(=O)Nc3ccc(OCC(F)(F)F)cn3)c(F)cc2F)s1 [Example 220]", "target or system": "CSF1R (Homo sapiens (Human))", "observable": "IC50", "recorded result": "> 1000 nM"}
{"compound": "Cc1ncc(C(=O)Nc2cc(C(=O)N[C@@H]3C[C@@H]3c3ccccc3Cl)c(F)cc2C)s1 [Example 101]", "target or system": "CSF1R (Homo sapiens (Human))", "observable": "IC50", "recorded result": "100 to 1000 nM"}
{"compound": "Cc1cc(F)c(C(=O)Nc2ccn([C@H]3CCOC3)n2)cc1NC(=O)c1cnc(N)s1 [Example 191]", "target or system": "CSF1R (Homo sapiens (Human))", "observable": "IC50", "recorded result": "> 1000 nM"}
{"compound": "Cc1ncc(C(=O)Nc2cc(C(=O)Nc3cnc(N4CCC(F)(F)C4)cn3)c(F)cc2C)s1 [Example 92]", "target or system": "CSF1R (Homo sapiens (Human))", "observable": "IC50", "recorded result": "> 1000 nM"}
{"compound": "Cc1cc(F)c(C(=O)Nc2ccc(OC3CC3)nn2)cc1NC(=O)c1cnc(N)s1 [Example 258]", "target or system": "CSF1R (Homo sapiens (Human))", "observable": "IC50", "recorded result": "100 to 1000 nM"}

Requested read-out IC50, target or system CSF1R (Homo sapiens (Human)), entry CO[C@H]1C[C@H](n2ccc(NC(=O)c3cc(NC(=O)c4cnc(N)s4)c(C)cc3F)n2)C1 [Example 187]
> 1000 nM

Requested read-out IC50, target or system CSF1R (Homo sapiens (Human)), entry Cc1cc(F)c(C(=O)Nc2ccc(OC3CC3)cn2)cc1NC(=O)c1cnc(C2CC2)s1 [Example 60]
> 1000 nM

Requested read-out IC50, target or system CSF1R (Homo sapiens (Human)), entry COc1cnc(NC(=O)c2cc(NC(=O)c3cnc(C)s3)c(C)cc2F)cn1 [Example 23]
> 1000 nM

* * *

target or system: PDGFRα (Homo sapiens (Human), UniProt P16234)
Sequence (P16234 24-1089): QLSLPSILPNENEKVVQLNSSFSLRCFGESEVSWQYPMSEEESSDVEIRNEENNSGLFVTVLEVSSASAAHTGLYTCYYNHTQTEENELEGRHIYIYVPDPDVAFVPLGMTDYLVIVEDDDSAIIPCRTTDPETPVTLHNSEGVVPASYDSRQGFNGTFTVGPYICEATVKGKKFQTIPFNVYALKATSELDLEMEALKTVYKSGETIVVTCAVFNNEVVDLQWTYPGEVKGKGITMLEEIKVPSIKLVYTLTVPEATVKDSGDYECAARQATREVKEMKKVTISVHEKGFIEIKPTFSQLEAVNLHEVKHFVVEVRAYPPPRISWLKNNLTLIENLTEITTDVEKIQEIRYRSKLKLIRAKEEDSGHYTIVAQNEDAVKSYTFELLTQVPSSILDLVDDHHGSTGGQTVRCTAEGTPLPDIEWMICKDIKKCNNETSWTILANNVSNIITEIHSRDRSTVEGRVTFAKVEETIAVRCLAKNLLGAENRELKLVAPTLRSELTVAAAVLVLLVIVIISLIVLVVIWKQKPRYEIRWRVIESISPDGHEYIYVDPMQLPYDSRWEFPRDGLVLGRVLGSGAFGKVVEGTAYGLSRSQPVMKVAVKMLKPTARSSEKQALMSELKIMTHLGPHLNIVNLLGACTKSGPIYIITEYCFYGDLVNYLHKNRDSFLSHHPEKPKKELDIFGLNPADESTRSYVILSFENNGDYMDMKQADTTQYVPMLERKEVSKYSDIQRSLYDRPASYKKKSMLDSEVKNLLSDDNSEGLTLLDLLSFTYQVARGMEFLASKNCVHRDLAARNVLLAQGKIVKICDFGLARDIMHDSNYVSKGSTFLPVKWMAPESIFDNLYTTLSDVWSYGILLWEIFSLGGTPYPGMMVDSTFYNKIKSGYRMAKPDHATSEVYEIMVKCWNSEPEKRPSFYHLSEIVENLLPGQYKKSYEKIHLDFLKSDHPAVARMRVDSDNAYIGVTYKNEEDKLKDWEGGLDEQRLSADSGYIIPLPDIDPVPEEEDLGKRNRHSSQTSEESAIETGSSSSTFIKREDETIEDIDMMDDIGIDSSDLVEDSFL
assay procedure: Inhibition of PDGFRα kinase activity (HTRF KinEASE-TK)
run parameters: biochemical, HTRF KinEASE-TK
observable: IC50

Use the examples below as a reference point.
{"smiles data": "CC(=O)Nc1ncc(C(=O)Nc2cc(C(=O)Nc3ccc(OC4CC4)cn3)c(F)cc2C)s1", "target or system": "PDGFRα (Homo sapiens (Human), UniProt P16234)", "IC50": "> 1 µM"}
{"smiles data": "Cc1cc(F)c(C(=O)Nc2ccn(C(C)(C)C)n2)cc1NC(=O)c1cnc(N)s1", "target or system": "PDGFRα (Homo sapiens (Human), UniProt P16234)", "IC50": "< 0.1 µM"}
{"smiles data": "Nc1ncc(C(=O)Nc2cc(C(=O)Nc3ccc(C(F)F)cn3)c(F)cc2F)s1", "target or system": "PDGFRα (Homo sapiens (Human), UniProt P16234)", "IC50": "> 1 µM"}
{"smiles data": "Cc1cc(F)c(C(=O)Nc2nc3c(s2)COCC3)cc1NC(=O)c1cnc(N)s1", "target or system": "PDGFRα (Homo sapiens (Human), UniProt P16234)", "IC50": "> 1 µM"}

Requested read-out IC50, target or system PDGFRα (Homo sapiens (Human), UniProt P16234), entry Cc1ncc(C(=O)Nc2cc(C(=O)Nc3cnc(N4CCC[C@H]4C(F)(F)F)cn3)c(F)cc2C)s1
> 1 µM

Requested read-out IC50, target or system PDGFRα (Homo sapiens (Human), UniProt P16234), entry Cc1cc(F)c(C(=O)Nc2ccc(C3(C#N)CC3)nn2)cc1NC(=O)c1cnc(N)s1
> 1 µM

Requested read-out IC50, target or system PDGFRα (Homo sapiens (Human), UniProt P16234), entry Cc1cc(F)c(C(=O)Nc2ccn(C3CCC3)n2)cc1NC(=O)c1cnc(N)s1
0.1 to 1 µM

Requested read-out IC50, target or system PDGFRα (Homo sapiens (Human), UniProt P16234), entry Cc1cc(F)c(C(=O)NC2CN(c3ncccn3)C2)cc1NC(=O)c1cnc(N)s1
> 1 µM

Requested read-out IC50, target or system PDGFRα (Homo sapiens (Human), UniProt P16234), entry Cc1cc(F)c(C(=O)Nc2ccc(OC3CC3)cn2)cc1NC(=O)c1cnc(NC(=O)C(C)(C)O)s1
> 1 µM
